Target entity: Beta-3 Adrenergic Receptor (Homo sapiens (Human), UniProt P13945)
Sequence (P13945 whole entry, species assumed): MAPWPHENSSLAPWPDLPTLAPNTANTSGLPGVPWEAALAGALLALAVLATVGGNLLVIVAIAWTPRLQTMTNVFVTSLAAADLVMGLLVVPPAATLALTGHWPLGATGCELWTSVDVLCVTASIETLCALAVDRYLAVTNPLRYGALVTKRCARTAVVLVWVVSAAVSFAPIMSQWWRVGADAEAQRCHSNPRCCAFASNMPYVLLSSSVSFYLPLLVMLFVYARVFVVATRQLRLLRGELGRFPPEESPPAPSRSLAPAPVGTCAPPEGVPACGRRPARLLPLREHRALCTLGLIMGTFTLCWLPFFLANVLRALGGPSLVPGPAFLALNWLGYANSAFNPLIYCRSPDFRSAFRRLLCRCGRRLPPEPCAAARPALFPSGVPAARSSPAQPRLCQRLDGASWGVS
Assay notes: Homogeneous Time-Resolved Fluorescence (HTRF) cAMP antagonist assay, IC50 determination
Experimental conditions: CHO-K1 cells stably expressing recombinant receptor, isoproterenol at EC90
Catalogue of IC50 values
Expressed in nM, but write only the number.

Here are 5 compounds together with their reported answers.
[
  {
    "Compound": "CNS(=O)(=O)c1cccc(OC[C@@H](O)CNC2COC3(CCN(S(=O)(=O)c4cccc(-c5cnn(C)c5)c4)CC3)C2)c1 (stereo partly drawn)",
    "Experimental endpoint": "IC50",
    "Number": 13.5
  },
  {
    "Compound": "CNS(=O)(=O)c1cccc(OC[C@@H](O)CNC2COC3(CCN(S(=O)(=O)c4ccc(C)c(-c5ccc(CN)cc5)c4)CC3)C2)c1 (stereo partly drawn)",
    "Experimental endpoint": "IC50",
    "Number": 499
  },
  {
    "Compound": "CNS(=O)(=O)c1cccc(OC[C@@H](O)CNC2COC3(CCN(S(=O)(=O)c4cccc(-c5ccc(CN)s5)c4)CC3)C2)c1 (stereo partly drawn)",
    "Experimental endpoint": "IC50",
    "Number": 14.6
  },
  {
    "Compound": "CN(C)CCCNS(=O)(=O)c1cccc(OC[C@@H](O)CNC2COC3(CCN(S(=O)(=O)c4ccc5nsnc5c4)CC3)C2)c1 (stereo partly drawn)",
    "Experimental endpoint": "IC50",
    "Number": 3170
  },
  {
    "Compound": "CN(C)CCCNS(=O)(=O)c1cccc(OC[C@@H](O)CNC2COC3(CCN(S(=O)(=O)c4cccc(Cl)c4)CC3)C2)c1 (stereo partly drawn)",
    "Experimental endpoint": "IC50",
    "Number": 3370
  }
]

query: Endpoint output: IC50 of CNS(=O)(=O)c1cccc(OC[C@@H](O)CNC2COC3(CCN(S(=O)(=O)c4ccc(C(=O)O)cc4)CC3)C2)c1 (stereo partly drawn) . Value?
result: 577

query: Endpoint output: IC50 of CNS(=O)(=O)c1cccc(OC[C@@H](O)CNC2COC3(CCN(S(=O)(=O)c4ccc(OC(F)(F)F)cc4)CC3)C2)c1 (stereo partly drawn) . Value?
result: 31.7

query: Endpoint output: IC50 of CNS(=O)(=O)c1cccc(OC[C@@H](O)CNC2COC3(CCN(S(=O)(=O)c4ccc(OC)cc4)CC3)C2)c1 (stereo partly drawn) . Value?
result: 20.8

query: Endpoint output: IC50 of CNS(=O)(=O)c1cccc(OC[C@@H](O)CNC2COC3(CCN(S(=O)(=O)c4cccc(-c5ccc(CNCC(C)C)cc5)c4)CC3)C2)c1 (stereo partly drawn) . Value?
result: 34.3

query: Endpoint output: IC50 of `CNS(=O)(=O)c1cccc(OC[C@@H](O)CN[C@H]2COC3(CCN(S(=O)(=O)c4cnc5c(c4)CNCC5)CC3)C2)c1` . Value?
result: 278

query: Endpoint output: IC50 of `NS(=O)(=O)c1cccc(OC[C@@H](O)CN[C@H]2COC3(CCN(S(=O)(=O)c4cnc5ccccc5c4)CC3)C2)c1` . Value?
result: 16.3

query: Endpoint output: IC50 of `CNS(=O)(=O)c1cccc(OC[C@@H](O)CN[C@H]2COC3(CCN(S(=O)(=O)c4cnc5cc[nH]c5c4)CC3)C2)c1` . Value?
result: 8.46

----------
Catalogue of IC50 values
Target entity: Beta-3 Adrenergic Receptor (Homo sapiens (Human))
Assay notes: Homogeneous Time-Resolved Fluorescence (HTRF) cAMP antagonist assay, IC50 determination
Experimental conditions: CHO-K1 cells stably expressing recombinant receptor, isoproterenol at EC90
Expressed in nM, but write only the number.

query: Endpoint output: IC50 of CNS(=O)(=O)c1cccc(OC[C@@H](O)CNC2COC3(CCN(S(=O)(=O)c4cncc(OC)c4)CC3)C2)c1 (stereo partly drawn) . Value?
result: 57.9

query: Endpoint output: IC50 of `NS(=O)(=O)c1cccc(OC[C@@H](O)CN[C@H]2COC3(CCN(S(=O)(=O)c4c[nH]c5cc(F)ccc5c4=O)CC3)C2)c1` . Value?
result: 21.3

query: Endpoint output: IC50 of CNS(=O)(=O)c1cccc(OC[C@@H](O)CNC2COC3(CCN(S(=O)(=O)c4ccc5[nH]c(=O)sc5c4)CC3)C2)c1 (stereo partly drawn) . Value?
result: 43

----------
Target entity: Beta-3 Adrenergic Receptor (Homo sapiens (Human))
Assay notes: Homogeneous Time-Resolved Fluorescence (HTRF) cAMP antagonist assay, IC50 determination
Experimental conditions: CHO-K1 cells stably expressing recombinant receptor, isoproterenol at EC90
Catalogue of pIC50 values
Expect pIC50 as a plain number equal to -log10 of the molar concentration.

query: Endpoint output: pIC50 of CNS(=O)(=O)c1cccc(OC[C@@H](O)CNC2COC3(CCN(S(=O)(=O)c4cccc(-c5ccc(CNCC(F)(F)F)cc5)c4)CC3)C2)c1 (stereo partly shown) [Compound 321] . Value?
result: 7.15

----------
Target entity: Beta-3 Adrenergic Receptor (Homo sapiens (Human), UniProt P13945)
Assay notes: Homogeneous Time-Resolved Fluorescence (HTRF) cAMP antagonist assay, IC50 determination
Experimental conditions: CHO-K1 cells stably expressing recombinant receptor, isoproterenol at EC90
pIC50: −log10 of the molar value.
Assign Criterion met whenever pIC50 does not fall below 7; assign Criterion not met whenever it does.

Solved entries:
[
  {
    "Molecule": "CNS(=O)(=O)c1cccc(OC[C@@H](O)CNC2COC3(CCN(S(=O)(=O)c4cccc(-c5sc(C)nc5C)c4)CC3)C2)c1 (some centres unmarked)",
    "Category label": "Criterion met"
  },
  {
    "Molecule": "CN(C)S(=O)(=O)c1cccc(OC[C@@H](O)CNC2COC3(CCN(S(=O)(=O)c4cccc(-c5ccc(OCC#N)cc5)c4)CC3)C2)c1 (some centres unmarked)",
    "Category label": "Criterion not met"
  },
  {
    "Molecule": "CNS(=O)(=O)c1cccc(OC[C@@H](O)CN[C@@H]2COC3(CCN(S(=O)(=O)c4cccc(-c5ccc(OCC#N)cc5)c4)CC3)C2)c1",
    "Category label": "Criterion met"
  },
  {
    "Molecule": "CNS(=O)(=O)c1cccc(OC[C@@H](O)CNC2COC3(CCN(S(=O)(=O)c4cccc(-c5c(C)noc5C)c4)CC3)C2)c1 (some centres unmarked)",
    "Category label": "Criterion met"
  },
  {
    "Molecule": "CN1CCOc2ncc(S(=O)(=O)N3CCC4(CC3)C[C@@H](NC[C@H](O)COc3cccc(S(N)(=O)=O)c3)CO4)cc21",
    "Category label": "Criterion met"
  }
]

query: Exam item: decide whether the reported pIC50 for CNS(=O)(=O)c1cccc(OC[C@@H](O)CNC2COC3(CCN(S(=O)(=O)c4cccc(-c5cnn(CCO)c5)c4)CC3)C2)c1 (some centres unmarked) is at least 7.
result: Criterion met

----------
Target entity: Beta-3 Adrenergic Receptor (Homo sapiens (Human))
Assay notes: Homogeneous Time-Resolved Fluorescence (HTRF) cAMP antagonist assay, IC50 determination
Experimental conditions: CHO-K1 cells stably expressing recombinant receptor, isoproterenol at EC90
Catalogue of IC50 values
Expressed in µM, but write only the number.

query: Endpoint output: IC50 of `CNS(=O)(=O)c1cccc(OC[C@@H](O)CN[C@H]2COC3(CCN(S(=O)(=O)c4cccc(-c5ccc(CNCCC(C)C)cc5)c4)CC3)C2)c1` . Value?
result: 0.144

query: Endpoint output: IC50 of `Cn1cc(S(=O)(=O)N2CCC3(CC2)C[C@@H](NC[C@H](O)COc2cccc(S(N)(=O)=O)c2)CO3)c(=O)c2ccccc21` . Value?
result: 0.14

query: Endpoint output: IC50 of `CNS(=O)(=O)c1cccc(OC[C@@H](O)CN[C@H]2COC3(CCN(S(=O)(=O)c4cnc5c(c4)[nH]c(=O)n5C)CC3)C2)c1` . Value?
result: 0.133

----------
Catalogue of IC50 values
Target entity: UniProt P13945
Assay notes: Homogeneous Time-Resolved Fluorescence (HTRF) cAMP antagonist assay, IC50 determination
Experimental conditions: CHO-K1 cells stably expressing recombinant receptor, isoproterenol at EC90

Here are 3 compounds together with their reported answers.
[
  {
    "Compound": "CCN1CCOc2ncc(S(=O)(=O)N3CCC4(CC3)CC(NC[C@H](O)COc3cccc(S(=O)(=O)NC)c3)CO4)cc21 (stereo partly drawn)",
    "IC50": "12.6 nM"
  },
  {
    "Compound": "CCOc1nc2c(cc1S(=O)(=O)N1CCC3(CC1)C[C@H](NC[C@H](O)COc1cccc(S(=O)(=O)NC)c1)CO3)N(C)CCO2",
    "IC50": "28.2 nM"
  },
  {
    "Compound": "CNS(=O)(=O)c1cccc(OC[C@@H](O)CNC2COC3(CCN(S(=O)(=O)c4cccc(-c5cnn(CC6CC6)c5)c4)CC3)C2)c1 (stereo partly drawn)",
    "IC50": "15.9 nM"
  }
]

query: Endpoint output: IC50 of CNS(=O)(=O)c1cccc(OC[C@@H](O)CNC2COC3(CCN(S(=O)(=O)c4cccc(-c5ccc(CNCCN(C)C)cc5)c4)CC3)C2)c1 (stereo partly drawn) . Value?
result: 63.5 nM

query: Endpoint output: IC50 of CNS(=O)(=O)c1cccc(OC[C@@H](O)CNC2COC3(CCN(S(=O)(=O)c4cc(Br)cc5c4OCC5)CC3)C2)c1 (stereo partly drawn) . Value?
result: 20.3 nM

query: Endpoint output: IC50 of CNS(=O)(=O)c1cccc(OC[C@@H](O)CNC2COC3(CCN(S(=O)(=O)c4cccc(-c5cncc(C)c5)c4)CC3)C2)c1 (stereo partly drawn) . Value?
result: 19 nM
